target: Angiotensin II receptor (Rattus norvegicus) (UniProt P29089+P25095+P35351); assay: Percent inhibition of the Angiotensin-II (0.1ug/kg, iv) induced pressor response after 3 hours of administration (3 mg/kg po) in rats; format: functional, organism-based
Classification field: True = inhibition at or over 90%; False = inhibition under 90%.

>>> category_label("CCCCc1nc(Cl)c(CO)n1Cc1ccc(-c2ccccc2-c2nnn[nH]2)cc1")
"False"
>>> category_label("CCCNc1nc2cccc(C(=O)O)c2n1Cc1ccc(-c2ccccc2-c2nn[nH]n2)cc1")
"False"
>>> category_label("CCCOc1nc2cccc(C(=O)OCC)c2n1Cc1ccc(-c2ccccc2-c2nn[nH]n2)cc1")
"False"
>>> category_label("CCOc1nc2cccc(C(=O)OC)c2n1Cc1ccc(-c2ccccc2-c2nn[nH]n2)cc1")
"True"
>>> category_label("CC(C)Cc1nc2cccc(C(=O)O)c2n1Cc1ccc(-c2ccccc2-c2nn[nH]n2)cc1")
"False"
>>> category_label("CCOc1nc2cccc(C(=O)O)c2n1Cc1ccc(-c2ccccc2C(=O)O)cc1")
"False"
>>> category_label("CC(C)c1nc2cccc(C(=O)O)c2n1Cc1ccc(-c2ccccc2-c2nn[nH]n2)cc1")
"False"
>>> category_label("CCSc1nc2cccc(C(=O)O)c2n1Cc1ccc(-c2ccccc2-c2nn[nH]n2)cc1")
"True"
>>> category_label("CCCCNc1nc2cccc(C(=O)O)c2n1Cc1ccc(-c2ccccc2-c2nn[nH]n2)cc1")
"False"
>>> category_label("Cc1nc2cccc(C(=O)O)c2n1Cc1ccc(-c2ccccc2-c2nn[nH]n2)cc1")
"False"
>>> category_label("CCC(C)c1nc2cccc(C(=O)O)c2n1Cc1ccc(-c2ccccc2-c2nn[nH]n2)cc1 (centres undefined)")
"False"
>>> category_label("CCCCc1nc2cccc(C(=O)O)c2n1Cc1ccc(-c2ccccc2-c2nn[nH]n2)cc1")
"False"
>>> category_label("CSc1nc2cccc(C(=O)O)c2n1Cc1ccc(-c2ccccc2-c2nn[nH]n2)cc1")
"True"
>>> category_label("CCOc1nc2cccc(C(=O)O)c2n1Cc1ccc(-c2ccccc2-c2nnn[nH]2)cc1")
"True"
>>> category_label("CCCOc1nc2cccc(C(=O)O)c2n1Cc1ccc(-c2ccccc2-c2nn[nH]n2)cc1")
"True"
>>> category_label("CCNc1nc2cccc(C(=O)O)c2n1Cc1ccc(-c2ccccc2-c2nn[nH]n2)cc1")
"True"

====

target: Angiotensin II receptor (Rattus norvegicus) (UniProt P29089+P25095+P35351); assay: Percent inhibition of the Angiotensin-II (0.1ug/kg, iv) induced pressor response after 3 hours of administration (1 mg/kg po) in rats; assay type: functional, organism-based
# inhibition per entry
OBSERVABLE: inhibition (%)

>>> numeric_result("COCc1nc2cccc(C(=O)O)c2n1Cc1ccc(-c2ccccc2-c2nn[nH]n2)cc1")
47
>>> numeric_result("CCOCc1nc2cccc(C(=O)O)c2n1Cc1ccc(-c2ccccc2-c2nn[nH]n2)cc1")
63
>>> numeric_result("CSCCc1nc2cccc(C(=O)O)c2n1Cc1ccc(-c2ccccc2-c2nn[nH]n2)cc1")
10
>>> numeric_result("CCCNc1nc2cccc(C(=O)O)c2n1Cc1ccc(-c2ccccc2-c2nn[nH]n2)cc1")
46
>>> numeric_result("CCOc1nc2cccc(C(=O)O)c2n1Cc1ccc(-c2ccccc2C(=O)O)cc1")
26
>>> numeric_result("CCc1nc2cccc(C(=O)O)c2n1Cc1ccc(-c2ccccc2-c2nn[nH]n2)cc1")
79
>>> numeric_result("CCCOc1nc2cccc(C(=O)O)c2n1Cc1ccc(-c2ccccc2-c2nn[nH]n2)cc1")
87
>>> numeric_result("COCCc1nc2cccc(C(=O)O)c2n1Cc1ccc(-c2ccccc2-c2nn[nH]n2)cc1")
13
>>> numeric_result("CCSCc1nc2cccc(C(=O)O)c2n1Cc1ccc(-c2ccccc2-c2nn[nH]n2)cc1")
68

====

Measured inhibition, listed per entry for reference.
molecular target: Angiotensin II receptor (Rattus norvegicus) (UniProt P29089+P25095+P35351); assay: Percent inhibition of the Angiotensin-II (0.1ug/kg, iv) induced pressor response after 3 hours of administration (1 mg/kg po) in rats; format: functional, organism-based
OBSERVABLE: inhibition (%)

>>> numeric_result("CCSc1nc2cccc(C(=O)O)c2n1Cc1ccc(-c2ccccc2-c2nn[nH]n2)cc1")
87
>>> numeric_result("CCOc1nc2cccc(C(=O)O)c2n1Cc1ccc(-c2ccccc2-c2nnn[nH]2)cc1")
100
>>> numeric_result("CC(C)Cc1nc2cccc(C(=O)O)c2n1Cc1ccc(-c2ccccc2-c2nn[nH]n2)cc1")
-9
>>> numeric_result("C=CCOc1nc2cccc(C(=O)OC)c2n1Cc1ccc(-c2ccccc2-c2nn[nH]n2)cc1")
14
>>> numeric_result("O=C(O)c1cccc2nc(C3CC3)n(Cc3ccc(-c4ccccc4-c4nn[nH]n4)cc3)c12")
80

====

target: Angiotensin II receptor (Rattus norvegicus) (UniProt P29089+P25095+P35351); test: Percent inhibition of the Angiotensin-II (0.1ug/kg, iv) induced pressor response after 7 hours of administration (1 mg/kg po) in rats; type: functional, organism-based
Values of inhibition greater than or equal to 40% map to Yes; values below map to No.

>>> category_label("COc1nc2cccc(C(=O)O)c2n1Cc1ccc(-c2ccccc2-c2nn[nH]n2)cc1")
"Yes"
>>> category_label("COCCc1nc2cccc(C(=O)O)c2n1Cc1ccc(-c2ccccc2-c2nn[nH]n2)cc1")
"No"
>>> category_label("COC(=O)c1cccc2nc(OCC(F)(F)F)n(Cc3ccc(-c4ccccc4-c4nn[nH]n4)cc3)c12")
"No"
>>> category_label("CC(C)Cc1nc2cccc(C(=O)O)c2n1Cc1ccc(-c2ccccc2-c2nn[nH]n2)cc1")
"No"
>>> category_label("CCSc1nc2cccc(C(=O)O)c2n1Cc1ccc(-c2ccccc2-c2nn[nH]n2)cc1")
"Yes"
>>> category_label("CSCCc1nc2cccc(C(=O)O)c2n1Cc1ccc(-c2ccccc2-c2nn[nH]n2)cc1")
"No"
>>> category_label("CSc1nc2cccc(C(=O)O)c2n1Cc1ccc(-c2ccccc2-c2nn[nH]n2)cc1")
"Yes"
>>> category_label("CCSCc1nc2cccc(C(=O)O)c2n1Cc1ccc(-c2ccccc2-c2nn[nH]n2)cc1")
"Yes"
>>> category_label("O=C(O)c1cccc2nc(OCC(F)(F)F)n(Cc3ccc(-c4ccccc4-c4nn[nH]n4)cc3)c12")
"No"
>>> category_label("CCOCc1nc2cccc(C(=O)O)c2n1Cc1ccc(-c2ccccc2-c2nn[nH]n2)cc1")
"No"
>>> category_label("C=CCOc1nc2cccc(C(=O)OC)c2n1Cc1ccc(-c2ccccc2-c2nn[nH]n2)cc1")
"No"
>>> category_label("CCCSc1nc2cccc(C(=O)O)c2n1Cc1ccc(-c2ccccc2-c2nn[nH]n2)cc1")
"Yes"
>>> category_label("CCOc1nc2cccc(C(=O)O)c2n1Cc1ccc(-c2ccccc2C(=O)O)cc1")
"Yes"
>>> category_label("CCc1nc2cccc(C(=O)O)c2n1Cc1ccc(-c2ccccc2-c2nn[nH]n2)cc1")
"Yes"
>>> category_label("CCCc1nc2cccc(C(=O)O)c2n1Cc1ccc(-c2ccccc2-c2nn[nH]n2)cc1")
"Yes"
>>> category_label("CCCNc1nc2cccc(C(=O)O)c2n1Cc1ccc(-c2ccccc2-c2nn[nH]n2)cc1")
"Yes"
>>> category_label("CCCCc1nc(Cl)c(CO)n1Cc1ccc(-c2ccccc2-c2nnn[nH]2)cc1")
"No"
>>> category_label("CCC(C)c1nc2cccc(C(=O)O)c2n1Cc1ccc(-c2ccccc2-c2nn[nH]n2)cc1 (centres undefined)")
"No"
>>> category_label("COCc1nc2cccc(C(=O)O)c2n1Cc1ccc(-c2ccccc2-c2nn[nH]n2)cc1")
"No"

====

molecular target: Angiotensin II receptor (Rattus norvegicus) (UniProt P29089+P25095+P35351); test: Percent inhibition of the Angiotensin-II (0.1ug/kg, iv) induced pressor response after 7 hours of administration (1 mg/kg po) in rats; format: functional, organism-based
Examples of molecules with documented inhibition follow.
OBSERVABLE: inhibition (%)

>>> numeric_result("CCOc1nc2cccc(C(=O)O)c2n1Cc1ccc(-c2ccccc2-c2nnn[nH]2)cc1")
92
>>> numeric_result("O=C(O)c1cccc2nc(C3CC3)n(Cc3ccc(-c4ccccc4-c4nn[nH]n4)cc3)c12")
88
>>> numeric_result("COC(=O)c1cccc2nc(OC)n(Cc3ccc(-c4ccccc4-c4nn[nH]n4)cc3)c12")
89
>>> numeric_result("CCCOc1nc2cccc(C(=O)O)c2n1Cc1ccc(-c2ccccc2-c2nn[nH]n2)cc1")
83
>>> numeric_result("CSCc1nc2cccc(C(=O)O)c2n1Cc1ccc(-c2ccccc2-c2nn[nH]n2)cc1")
44
>>> numeric_result("CCOc1nc2cccc(C(=O)OC)c2n1Cc1ccc(-c2ccccc2-c2nn[nH]n2)cc1")
90
>>> numeric_result("CCCCc1nc2cccc(C(=O)O)c2n1Cc1ccc(-c2ccccc2-c2nn[nH]n2)cc1")
53
